FYI, the data here is from patent US20220259593A1.

As shown below, each of these molecules has a reported Mean relative activity value.
tested on: K562 CRISPRi cells; test: Constant region variant library pooled growth screen, K562; type: cell-based, human; settings: sgRNA constant region variants; activity relative to the original, un-modified constant region cr995
// return just the number, without any unit appended

Molecule	Quantity name	Assay value
cr797 (nucleic acid, listed as DNA, chemistry not fully specified) guide: GTTTAAGAGCTAAGCTGGAAACAGCATAGCAAGTTTAAATAAGGCTAGTCCGTGATCAACTTGAAAAAGTGGCACCGAGTCGGTGCT	Mean relative activity	1.027
cr290 (nucleic acid, listed as DNA, chemistry not fully specified) guide: GTTTAAGAGCTAAGCTGGAAACAGCATAGCAAGTTTAAATAAGGCTAGTCCATTATCAACTTGAAAAAGTTGCACCGAGTCGGTGCT	Mean relative activity	0.1027
cr937 (nucleic acid, listed as DNA, chemistry not fully specified) guide: GTTTAAGAGCTAAGCTGGAAACAGCATAGCAAGTTTAAATAAGGGTACTCCGTTATCAACTCGAAAGAGTGGCACAGAGTCTGTGCT	Mean relative activity	0.6137

Entry cr725 (nucleic acid, listed as DNA, chemistry not fully specified) guide: GTTTAAGAGCTAAGCTGGAAACAGCATAGCAAATTTAAATAAGGCTAGTCCGTTATCAACTTGAAAAAGTGGCACCGAGTCGGTGCT , Mean relative activity reported as 0.7094
